The origin of these recorded values is ChEMBL document CHEMBL1201861.

Tested on: NCI-H747;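 note: growth inhibition of human NCI-H747 cells, read out by a cell viability assay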
Protocol details: cells
Assay type: functional, cell-based, Homo sapiens
Test settings: Homo sapiens, NCI-H747
Description: SANGER: Inhibition of human NCI-H747 cell growth in a cell viability assay.
Reported IC50 values for a set of compounds
Endpoint label: IC50

>>> observed("CS(=O)(=O)N1CCN(Cc2cc3nc(-c4cccc5[nH]ncc45)nc(N4CCOCC4)c3s2)CC1")
"> 4 µM"
>>> observed("CC1=C(/C=C/C(C)=C/C=C/C(C)=C/C(=O)O)C(C)(C)CCC1")
"> 10 µM"
>>> observed("COc1ccc(N(C(=O)Oc2c(C)cccc2C)c2ccnc(Nc3ccc(N4CCN(C)CC4)cc3)n2)c(OC)c1")
"> 5.12 µM"
>>> observed("C=CC(=O)N1CCCC(Nc2nc(Nc3ccc(N(C)C(=O)CC)cc3)nc3[nH]cnc23)C1 (stereo not drawn)")
"> 10.2 µM"
>>> observed("CO[C@@H]1[C@H](N(C)C(=O)c2ccccc2)C[C@H]2O[C@]1(C)n1c3ccccc3c3c4c(c5c6ccccc6n2c5c31)C(=O)NC4")
"> 0.512 µM"
>>> observed("NC(=O)c1ccc(N(C(N)=O)c2c(F)cccc2F)nc1-c1ccc(F)cc1F")
"> 2 µM"
>>> observed("O=S(=O)(O)c1ccc2cc(/N=N/c3cc(S(=O)(=O)O)c4cccnc4c3O)ccc2c1")
"> 16 µM"
>>> observed("NC(=O)c1cccc(-c2cc(Nc3ccc(OC(F)(F)F)cc3)ncn2)c1")
"> 1.28 µM"

====

System: MZ2-MEL;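 note: growth inhibition of MZ2-MEL cells read out with a cell viability assay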
Protocol details: cells
Type: functional, cell-based, Homo sapiens
Test settings: Homo sapiens, MZ2-MEL
Description: SANGER: Inhibition of human MZ2-MEL cell growth in a cell viability assay.
Endpoint label: IC50

>>> observed("C/C(=C\\c1csc(C)n1)[C@@H]1C[C@@H]2O[C@]2(C)CCC[C@H](C)[C@H](O)[C@@H](C)C(=O)C(C)(C)[C@@H](O)CC(=O)O1 [PATUPILONE]")
"0.00215 µM"
>>> observed("Cc1ccc(C(=O)Nc2ccc(CN3CCN(C)CC3)c(C(F)(F)F)c2)cc1C#Cc1cnc2cccnn12 [PONATINIB]")
"> 0.512 µM"
>>> observed("NC(=O)c1cccc(-c2cc(Nc3ccc(OC(F)(F)F)cc3)ncn2)c1")
"> 1.28 µM"
>>> observed("NC(=O)Nc1cc(-c2cccc(F)c2)sc1C(=O)N[C@H]1CCCNC1 [AZD-7762]")
"> 2 µM"
>>> observed("NC(=O)c1ccc(N(C(N)=O)c2c(F)cccc2F)nc1-c1ccc(F)cc1F [VX-702]")
"> 2 µM"

====

System: HCE-4;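 note: cell viability assay measuring inhibition of growth in the human HCE-4 cell line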
Protocol details: cells
Assay type: functional, cell-based
Test settings: Homo sapiens
Description: SANGER: Inhibition of human HCE-4 cell growth in a cell viability assay.
pIC50: −log10 of the molar value.
Endpoint label: pIC50

>>> observed("NC(=O)Nc1cc(-c2cccc(F)c2)sc1C(=O)N[C@H]1CCCNC1")
6.01
>>> observed("COc1ccc(-c2cc3nccn3c(Nc3ncccc3C(N)=O)n2)cc1OC")
5.30

====

Test system: NCI-H1650;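 note: growth inhibition of human NCI-H1650 cells measured by a cell viability assay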
Protocol details: cells
Format: functional, cell-based, Homo sapiens
Test settings: Homo sapiens, NCI-H1650
Description: SANGER: Inhibition of human NCI-H1650 cell growth in a cell viability assay.
pIC50: −log10 of the molar value.
Endpoint label: pIC50

>>> observed("C=CC(=O)N1CCCC(Nc2nc(Nc3ccc(N(C)C(=O)CC)cc3)nc3[nH]cnc23)C1 (stereo not given)")
"< 4.99"
>>> observed("Cc1ccc(-n2nc(C(C)(C)C)cc2NC(=O)Nc2ccc(OCCN3CCOCC3)c3ccccc23)cc1")
"< 5.00"
>>> observed("CCCCCCCCCCCC1=C(O)C(=O)C=C(O)C1=O")
4.68
>>> observed("C[C@@H](Oc1cc(-c2cnn(C3CCNCC3)c2)cnc1N)c1c(Cl)ccc(F)c1Cl")
"< 5.70"
>>> observed("Cc1cc(N2CCOCC2)cc2[nH]c(-c3c(NC[C@@H](O)c4cccc(Cl)c4)cc[nH]c3=O)nc12")
"< 5.29"

====

Tested on: MKN-28;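 note: cell viability assay read-out, IC50 reflects suppression of growth of human MKN-28 cells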
Protocol details: cells
Assay type: functional, cell-based
Test settings: Homo sapiens
Description: SANGER: Inhibition of human MKN28 cell growth in a cell viability assay.
pIC50: −log10 of the molar value.
Endpoint label: pIC50

>>> observed("Cc1ccc(-n2nc(C(C)(C)C)cc2NC(=O)Nc2ccc(OCCN3CCOCC3)c3ccccc23)cc1 [DORAMAPIMOD]")
"< 5.00"
>>> observed("CC1(C)CCC(c2ccc(Cl)cc2)=C(CN2CCN(c3ccc(C(=O)NS(=O)(=O)c4ccc(N[C@H](CCN5CCOCC5)CSc5ccccc5)c(S(=O)(=O)C(F)(F)F)c4)cc3)CC2)C1 [NAVITOCLAX]")
"< 5.70"
>>> observed("CN(C)CCOc1ccc(-c2nc(-c3ccncc3)c(-c3ccc4c(c3)CC/C4=N\\O)[nH]2)cc1 [SB590885]")
"< 5.30"
>>> observed("Cc1ccc(C(=O)Nc2ccc(CN3CCN(C)CC3)c(C(F)(F)F)c2)cc1C#Cc1cnc2cccnn12 [PONATINIB]")
"< 6.29"
>>> observed("NC(=O)c1ccc(N(C(N)=O)c2c(F)cccc2F)nc1-c1ccc(F)cc1F [VX-702]")
"< 5.70"
>>> observed("CO[C@@H]1[C@H](N(C)C(=O)c2ccccc2)C[C@H]2O[C@]1(C)n1c3ccccc3c3c4c(c5c6ccccc6n2c5c31)C(=O)NC4 [MIDOSTAURIN]")
"< 6.29"
>>> observed("O=C1NC(=O)c2c1c(-c1ccccc1Cl)cc1[nH]c3ccc(O)cc3c21")
"< 5.70"

====

Test system: EFE-184
Protocol details: cells
Assay type: functional, cell-based
Test settings: Homo sapiens
Description: SANGER: Inhibition of human EFE-184 cell growth in a cell viability assay.
Endpoint label: IC50

>>> observed("C/C(=C\\c1csc(C)n1)[C@@H]1C[C@@H]2O[C@]2(C)CCC[C@H](C)[C@H](O)[C@@H](C)C(=O)C(C)(C)[C@@H](O)CC(=O)O1 [PATUPILONE]")
"> 32 nM"

====

System: NCI-H2170;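 note: cell viability assay measuring growth inhibition of human NCI-H2170 cancer cells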
Protocol details: cells
Assay type: functional, cell-based
Test settings: Homo sapiens
Description: SANGER: Inhibition of human NCI-H2170 cell growth in a cell viability assay.
Reported IC50 values for a set of molecules
Endpoint label: IC50

>>> observed("O=S(=O)(O)c1ccc2cc(/N=N/c3cc(S(=O)(=O)O)c4cccnc4c3O)ccc2c1")
"> 16 µM"
>>> observed("O=C1NC(=O)c2c1c(-c1ccccc1Cl)cc1[nH]c3ccc(O)cc3c21")
"> 2 µM"
>>> observed("Cc1ccc(C(=O)Nc2ccc(CN3CCN(C)CC3)c(C(F)(F)F)c2)cc1C#Cc1cnc2cccnn12")
"> 0.512 µM"
>>> observed("NC(=O)c1ccc(N(C(N)=O)c2c(F)cccc2F)nc1-c1ccc(F)cc1F")
"> 2 µM"

====

System: HCC1187
Protocol details: cells
Assay type: functional, cell-based, Homo sapiens
Test settings: Homo sapiens, HCC1187
Description: SANGER: Inhibition of human HCC1187 cell growth in a cell viability assay.
pIC50: −log10 of the molar value.
Endpoint label: pIC50

>>> observed("CN(C)CCOc1ccc(-c2nc(-c3ccncc3)c(-c3ccc4c(c3)CC/C4=N\\O)[nH]2)cc1 [SB590885]")
"< 5.30"
>>> observed("COc1ccc(-c2cc3nccn3c(Nc3ncccc3C(N)=O)n2)cc1OC")
"< 5.10"
>>> observed("C[C@@H](Oc1cc(-c2cnn(C3CCNCC3)c2)cnc1N)c1c(Cl)ccc(F)c1Cl [CRIZOTINIB]")
"< 5.70"
>>> observed("Cc1ccc(C(=O)Nc2ccc(CN3CCN(C)CC3)c(C(F)(F)F)c2)cc1C#Cc1cnc2cccnn12 [PONATINIB]")
"< 6.29"

====

Test system: NB7
Protocol details: cells
Type: functional, cell-based, Homo sapiens
Test settings: Homo sapiens, NB7
Description: SANGER: Inhibition of human NB7 cell growth in a cell viability assay.
pIC50: −log10 of the molar value.
Endpoint label: pIC50

>>> observed("O=C1NC(=O)c2c1c(-c1ccccc1Cl)cc1[nH]c3ccc(O)cc3c21")
"< 5.70"
>>> observed("Cc1cc(N2CCOCC2)cc2[nH]c(-c3c(NC[C@@H](O)c4cccc(Cl)c4)cc[nH]c3=O)nc12")
"< 5.29"
>>> observed("CN(C)CCOc1ccc(-c2nc(-c3ccncc3)c(-c3ccc4c(c3)CC/C4=N\\O)[nH]2)cc1")
"< 5.30"
>>> observed("COc1cc(N2CCC(N3CCN(C)CC3)CC2)ccc1Nc1ncc(Cl)c(Nc2ccccc2S(=O)(=O)C(C)C)n1")
"< 5.70"
>>> observed("CS(=O)(=O)N1CCN(Cc2cc3nc(-c4cccc5[nH]ncc45)nc(N4CCOCC4)c3s2)CC1")
6.41
>>> observed("NC(=O)Nc1cc(-c2cccc(F)c2)sc1C(=O)N[C@H]1CCCNC1")
"< 5.70"
>>> observed("CC(C)C[C@H](NC(=O)[C@H](Cc1ccccc1)NC(=O)c1cnccn1)B(O)O")
7.80

====

Reported pIC50 values for a set of molecules
System: UACC-812
Protocol details: cells
Assay type: functional, cell-based
Test settings: Homo sapiens
Description: SANGER: Inhibition of human UACC-812 cell growth in a cell viability assay.
pIC50: −log10 of the molar value.
Endpoint label: pIC50

>>> observed("OC[C@H](Cc1ccccc1)Nc1nc(Oc2ccc3c(c2)CCC3)nc2c1ncn2Cc1ccc(-c2ccccc2)cc1")
"< 4.99"
>>> observed("COC(=O)[C@H](CCSC)NC(=O)c1ccc(NC[C@@H](N)CS)cc1-c1ccccc1")
"< 5.99"
>>> observed("COc1cc(N2CCC(N3CCN(C)CC3)CC2)ccc1Nc1ncc(Cl)c(Nc2ccccc2S(=O)(=O)C(C)C)n1")
"< 5.70"
